target: Thyrotropin receptor (Homo sapiens); test: qHTS assay to identify small molecule antagonists of the thyroid stimulating hormone receptor (TSHR) signaling pathway (AID 1259385); conditions: TSHR-HEK293 cAMP HTRF, TSH-stimulated antagonist mode; series mostly up to 92.4 µM; further: nearly all actives have a fitted effect of over 20% in size
Records with an inconclusive call do not appear. Calls of active or inactive are those of the source. The call rests on the fitted dose curve.
Outcome field: choose from 1.0 (active), 0.0 (inactive)

Give the logged outcome of this assay for the following compound: `CNC(=O)c1cnn(-c2nc(N)c3ncn([C@@H]4O[C@H](CO)[C@@H](O)[C@H]4O)c3n2)c1`
0.0

Which outcome was entered for the compound `CCOC(C)=O` in this test?
0.0
